assay-explanation: Human liver microsome intrinsic clearance
Assay type: in vitro ADME
measurement-conditions: human, liver microsomes; read-out: HLM CLint
recorded-metric: microsomal CLint (µL/min/mg)

Fc1ccc(-c2c(-c3ccccn3)nc3ccccn23)cc1 = 168

I: Cc1ccc(-c2c(-c3ccccn3)nc3cc(Cl)ccn23)cc1
II: Cc1ccc(-c2c(-c3ccccn3)nc3ccccn23)cc1
IN: Please indicate which entry, I or II , has the lower recorded microsomal CLint value. # reply format: chosen label
OUT: I
(I: 65.6 µL/min/mg, II: 122 µL/min/mg)

* * *

Test system: PMM (primary mouse macrophages)
assay-explanation: Toxicity against PMM
Type: cell-based
measurement-conditions: PMM
recorded-metric: PMM TC50 (µM)
Write the number in µM without appending the unit.

Clc1ccc(-c2c(-c3ccccn3)nc3n2CCC3)cc1 [OSA_000875] = 8
N#CCc1ccc(-n2c(-c3ccccn3)nc3ccccc32)cc1 [OSA_000996] = 64

IN: Hello, please tell me recorded PMM TC50 for this one: c1ccc(-c2nc3ccccc3n2-c2ccc3occc3c2)nc1 [OSA_000991]
OUT: 38.63

* * *

assay-explanation: In vitro metabolic stability, human liver microsomes (Monash)
Type: in vitro ADME
measurement-conditions: Monash, read-out: HLM Clint (Monash)
recorded-metric: microsomal CLint at 1 µM (µL/min/mg)

c1ccc(-c2nc3n(c2-c2ccc4c(c2)OCO4)CCS3)nc1 = 37
c1ccc(-c2nc3ccccn3c2-c2ccc3c(c2)OCO3)nc1 = 47
c1ccc(-c2nc3n(c2-c2ccc4occc4c2)CCC3)nc1 = 51

* * *

Test system: Staphylococcus aureus NCTC 13373 (mecA-positive; methicillin-resistant)
assay-explanation: In vitro antibacterial activity, MIC (UCL School of Pharmacy assay), MRSA
Assay type: cell-based
recorded-metric: MRSA MIC (µg/mL)

Some entries whose results are on file:
COc1ccc2nc(-c3ccccn3)c(N(C)c3cc(F)cc(F)c3)n2c1 [compound 998] = 8
COc1ccnc(-c2nc3ccccn3c2N(C)c2ccc(F)cc2)c1 [compound 1007] = 8
COc1ccnc(-c2nc3cc(OC)ccn3c2N(C)c2ccc(F)cc2)c1 [compound 1000] = 2
Clc1ccn2c(-c3ccc4occc4c3)c(-c3ccccn3)nc2c1 [compound 985] = 8
COc1ccn2c(-c3ccccc3)c(-c3ccccn3)nc2c1 [compound 860] = 8

P: Fc1ccc(NCc2c(-c3ccccn3)nc3ccccn23)cc1 [compound 1019]
Q: Fc1ccc(Nc2c(-c3ccccn3)nc3sccn23)cc1 [compound 984]
IN: Please indicate which entry, P or Q , has the lower recorded MRSA MIC value. # reply format: chosen label
OUT: Q
(Q: 8 µg/mL, P: 32 µg/mL)

* * *

Test system: U2OS
assay-explanation: Toxicity against U2OS
Type: cell-based
measurement-conditions: U2OS cells
recorded-metric: U2OS TC50 (nM)
Write the number in nM without appending the unit.

Some entries whose results are on file:
COc1ccn2c(Nc3ccccc3F)c(-c3cnn(C)c3)nc2c1 [OSA_000855] = 50000
Fc1ccc(-c2c(-c3ccccn3)nc3ccccn23)cc1 [OSA_000859] = 4540
COc1ccn2c(-c3ccccc3)c(-c3ccccn3)nc2c1 [OSA_000860] = 730

Pending compound:
IN: Print U2OS U2OS TC50 for COc1ccn2c(-c3ccc(F)cc3)c(-c3ccccn3)nc2c1 [OSA_000858] .
OUT: 1280

Sourced from paper PMC10714399
